assayed-target: T1, recombinant human CD3 epsilon/delta heterodimer (human, UniProt P07766 23-126; P04234 22-105)
T1 construct: Recombinant protein in solution (200-50 nM) in the Octet assay; also called hCD3 E/D; human CD3E/D
T1 sequence (P07766 23-126, stated change not applied, chain 1 of 2): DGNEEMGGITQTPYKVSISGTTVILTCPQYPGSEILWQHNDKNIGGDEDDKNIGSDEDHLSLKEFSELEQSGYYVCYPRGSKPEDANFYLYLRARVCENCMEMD
T1 sequence (P04234 22-105, stated change not applied, chain 2 of 2): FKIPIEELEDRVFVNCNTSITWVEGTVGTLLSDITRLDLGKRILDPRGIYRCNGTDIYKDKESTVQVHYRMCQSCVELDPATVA
run-description: Octet BLI, mAb on FAB2G sensor, hCD3 E/D 200-50 nM; R^2 0.99
Overview of recorded pKd for various binders
Scale explanation: pKd corresponds to minus log10 of a concentration expressed in moles per litre.

| binder | pKd |
| --- | --- |
| ABL-CD3-47 (antibody, V domains shown, Chimeric hybridoma mAb: human V, CH1, upper hinge; mouse middle hinge, CH2, CH3) VH: EVQLVESGGGLVQPGGSLRLSCAASGFTFSRYSMNWVRQAPGKGLEWVSYISRSSTTIYYADSVKGRFTISRDNAKNSLYLQMNSLRDEDAAVYYCARERWELLYFDYWGQGTLVTVSS VL: NFMLTQPHSVSESPGKTVTISCTRSSGSIASKYVQWYQQRPGSSPTTVIYEDNQRPSGVPDRFSGSIDSSSNSASLTISGLKTEDEADYYCQSYYSNNRVFGGGTKLTVL | 7.77 |

Give pKd for ABL-CD3-26 (antibody, V domains shown, Chimeric hybridoma mAb: human V, CH1, upper hinge; mouse middle hinge, CH2, CH3) VH: EVHLVESGGGLVKPGGSLRLSCAASGFTFSSYSMNWVRQAPGKGLEWVSSISSSSTYIYYADSVKGRFTISRDNAKNSLYLQMNSLRAEDTAVYYCAREPRTLGMDYWGQGILVTVSS VL: NFMLTQPHSVSESPGKTVTISCTRSSGSIASNYVQWYQQRPGSSPTTVIYEDNHRPSGVPDRFSGSIDSSSNSASLTISGLKTEDEADYFCQSFDSSNRVFGGGTKLTVL
8.18

Query pKd for ABL-CD3-56 (antibody, V domains shown, Chimeric hybridoma mAb: human V, CH1, upper hinge; mouse middle hinge, CH2, CH3) VH: EVQLVESGGGLVKPGGSLRLSCVASGFTFSRYSMNWVRQAPGKGLEWVSSISSSSRYTYYADSLKGRFIMSRDNAKNSLFLQMNSLRAEDTAVYYCARNLYNALDYWGQGTLVTVSS VL: FMLTQPHSVSESPGKTVTISCTRSSGSIASNYVQWYQQRPGSSPTTVIYEDNQRPSGVPDRFSGSIDSSSNSASLTISGLQTEDEADYYCQSYDSSNRVFGGGTKLTVL
8.40
